The measurements presented in this section are drawn from patent US11702422B2.

- ASSAYED_TARGET: IL-17A(FLAG-Tagged): IL-17RA(His-Tagged) (Homo sapiens, UniProt Q16552, K93Q)
- Sequence (Q16552 with tags, fused parts or gaps K93Q): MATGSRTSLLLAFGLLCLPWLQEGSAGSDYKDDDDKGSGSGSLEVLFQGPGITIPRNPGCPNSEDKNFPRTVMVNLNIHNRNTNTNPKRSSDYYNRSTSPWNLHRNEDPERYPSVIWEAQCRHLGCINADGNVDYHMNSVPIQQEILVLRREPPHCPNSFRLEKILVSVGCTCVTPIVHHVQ
- ASSAY_METHOD_TEXT: IL-17A(FLAG-Tagged): IL-17RA(His-Tagged) Binding Disruption Eu-HTRF Assay
- ASSAY_CONDITIONS: IL-17A/IL-17RA binding disruption, simple average if tested more than once
pIC50: −log10 of the molar value.
Outcome: condition met for pIC50 of at least 7; condition not met for anything lower.

Quick check, pIC50 >= 7? CC(C)Oc1nocc1C(=O)N[C@H](c1cn2ncc([C@H](NC(=O)CCC(F)(F)F)C3CC3)cc2n1)C1CCC(F)(F)CC1
condition not met

Also check CC(C)n1nccc1C(=O)N[C@H](c1cn2ncc(C(NC(=O)CC(C(F)(F)F)C(F)(F)F)C3CC3)cc2n1)C1CCC(F)(F)CC1 (single isomer, unassigned) [Example 10]
condition not met

Also check O=C(CCC(F)(F)F)NC(c1cnn2cc([C@@H](NC(=O)c3cnn(CCC(F)(F)F)n3)C3CCC(F)(F)CC3)nc2c1)C1CC1 (single isomer, unassigned) [Example 19]
condition not met

Also check Cc1nonc1C(=O)N[C@H](c1cn2ncc(C(NC(=O)CC3CC(F)(F)C3)C3CCC3)cc2n1)C1CCC(F)(F)CC1 (single isomer, unassigned) [Example 494]
condition not met

Also check CC(O)c1nonc1C(=O)N[C@H](c1cn2ncc([C@H](NC(=O)CC3CC(F)(F)C3)C3CC3)cc2n1)C1CCC(F)(F)CC1 (single isomer, unassigned) [Example 395]
condition met

Also check Cc1ccnc(C(=O)N[C@H](c2cn3ncc([C@H](NC(=O)CCC(F)(F)F)C4CC4)cc3n2)C2CCC(F)(F)CC2)n1
condition not met

Also check CCC(NC(=O)CC1CC(F)(F)C1)c1cnn2cc([C@@H](NC(=O)c3ccnn3C(C)C)C3CCC(F)(F)CC3)nc2c1 (single isomer, unassigned)
condition not met

Also check [2H]C([2H])([2H])C([2H])([2H])n1nccc1C(=O)N[C@H](c1cn2ncc([C@H](NC(=O)CCC(F)(F)F)C3CC3)cc2n1)C1CCC(F)(F)CC1
condition met

Also check O=C(CCC(F)(F)F)N[C@@H](c1cnn2cc([C@@H](NC(=O)[C@H]3C[C@@H]3C(F)F)C3CCC(F)(F)CC3)nc2c1)C1CC1 (single isomer, unassigned)
condition not met
